Tested on: LXRb homodimer (NR concentration 270 nM)
procedure.text: PBM binding z-score (relative to random genomic background probes); higher = stronger binding; sequences stand for … in GC…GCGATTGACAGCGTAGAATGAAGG
PBM binding z-score for assorted sequences
Please state the value as a number alone, without comment.

Some sequences with known PBM binding z-score results, for comparison:
sequence.data | PBM binding z-score
CCTACTCGGCCAAAGGTCATTGATTCCAATGCTC | 1.98
ACAGACAGGTGTTGAAGGTAACTCAGGCTATCAT | -0.389
ATCTCTGGGTAAAGTTCAGTGAAAGATCGATAGA | 1.23
CGTCAAAGTTCAAGGTAACGCAACAGAAAGCAGC | 1.08
TCGAGTAGGTTACCAATGGGGAATTCAGCTTTCT | -0.737

Lookup: PBM binding z-score / LXRb homodimer (NR concentration 270 nM) / "CCGACTGGGGCAAGGTTCCCATAACGCACAGCCA"
-1.24

GET /values?readout=PBM binding z-score&system=LXRb homodimer (NR concentration 270 nM)&item= "ACTTACGGGTCAACGTGGTTATAGCACGCGTATA"
0.534
